Tested on: CLBL1 DLBCL cells
Test: MTS cell viability assay, CLBL1
Type: cell-based, canine
Conditions: Canis lupus familiaris, CLBL-1, 72 hours, read-out: IC50 (± S.D.), CLBL1
parameter measured: IC50 (nM)
Supply the numeric figure in nM, leaving out any unit text.

### Prompt Bench note: what IC50 did `O=C(/C=C\n1cnc(-c2cc(C(F)(F)F)cc(C(F)(F)F)c2)n1)NNc1ccccn1` show?
### Response 8.5

====

Test system: primary canine DLBCL cells
Test: MTS cell viability assay, primary canine DLBCL samples
Type: cell-based
Conditions: primary sample #4, 72 hours, read-out: IC50, DLBCL#4
parameter measured: IC50 (nM)
# unit: nM | format: bare number

### Prompt // query IC50 value for entry `COc1cc(-c2ncn(/C=C\C(=O)OC(C)C)n2)cc(C(F)(F)F)c1`
### Response 4.9

====

Assay: Phase I dose escalation study, toxicity assessment
Settings: dog, in vivo, po; orally twice/week (Monday/Thursday), dogs with spontaneous cancer; read-out: maximum tolerated dose (MTD)
parameter measured: MTD (mg/kg)
Please give a number only; it is taken to be in mg/kg.

### Prompt Consider the compound shown here: `O=C(/C=C\n1cnc(-c2cc(C(F)(F)F)cc(C(F)(F)F)c2)n1)NNc1ccccn1` What is its recorded MTD?
### Response 1.75

====

Test system: primary canine DLBCL cells
Experiment: MTS cell viability assay, primary canine DLBCL samples
Type: cell-based
Details: primary sample #3, 72 hours, read-out: IC50, DLBCL#3
parameter measured: pIC50
# reply with the number alone; pIC50 is -log10 of concentration in mol/L

### Prompt Returns the measured pIC50 for the input compound. Input: `COc1cc(-c2ncn(/C=C\C(=O)OC(C)C)n2)cc(C(F)(F)F)c1`
### Response 7.91

====

Test: Single oral dose pharmacokinetics in healthy dogs
Format: in vivo
Settings: male, beagle, dog; 1.5 mg/kg single oral dose, capsule, fed, 6 dogs, plasma
parameter measured: AUC(0-inf)

### Prompt Fill blank: measured AUC(0-inf) of the molecule `O=C(/C=C\n1cnc(-c2cc(C(F)(F)F)cc(C(F)(F)F)c2)n1)NNc1ccccn1` is ____.
### Response 1810 ng·h/mL

====

Assay: Single oral dose pharmacokinetics in healthy dogs
Format: in vivo
Conditions: male, beagle, dog; 1.5 mg/kg single oral dose, capsule, fed, 6 dogs, plasma; read-out: AUC0-last, mean
Experimental: KPT-335 was administered as a single oral dose in capsule formulation to 6 male beagle dogs at approximately 1.5 mg/kg following a meal. […] Plasma samples were analyzed for parent drug concentration using sample preparation by protein precipitation and then analysis by LC-MS/MS using propranolol as the internal standard. […] Descriptive statistical data (mean, standard deviation, and standard error of the mean) were calculated from the unrounded numbers in an Excel (Microsoft) spreadsheet. […]
parameter measured: AUC(0-t) (ng·h/mL)
I only need the number, in ng·h/mL, no unit after it.

### Prompt Request the reported AUC(0-t) associated with O=C(/C=C\n1cnc(-c2cc(C(F)(F)F)cc(C(F)(F)F)c2)n1)NNc1ccccn1 [KPT-335]
### Response 1760
